# Tested System: Cytochrome P450 2D6 (Homo sapiens)
# Method Notes: Cytochrome P450 Family 2 Subfamily D Member 6 (CYP2D6) small molecule antagonists: luciferase reporter qHTS assay (AID 1671196); also: nearly all actives have a fitted effect of over 50% in size
# Experimental Parameters: P450-Glo CYP2D6 enzyme assay, luciferin luminescence, 1 h; series mostly up to 115 µM
Records with an inconclusive call do not appear. Calls of active or inactive are those of the source. Calls follow the shape of the dose curve; as a rule, active = well fitted inhibition curve with a large enough effect in the repeat runs; inconclusive = weak or mixed curves; inactive = no such curve, though single readings can be large or run the other way.
Give your call using only these classes: T = active, F = inactive

A selection of reference data follows.
QUERY: Hello, I am checking results. What call was entered for `CCCCC(=O)O[C@]1(C(=O)CO)CC[C@H]2[C@@H]3CCC4=CC(=O)CC[C@]4(C)[C@H]3[C@@H](O)C[C@@]21C` ?
RESULT: F

QUERY: Hello, I am checking results. What call was entered for CCCCC(CC)C(=O)OCCOCCOCCOCCOC(=O)C(CC)CCCC (stereo unspecified) ?
RESULT: F

QUERY: Hello, I am checking results. What call was entered for `CC1(C)C(=O)N(Br)C(=O)N1Cl` ?
RESULT: F

QUERY: Hello, I am checking results. What call was entered for `CCC(=O)Oc1ccc(/C(CC)=C(\CC)c2ccc(OC(=O)CC)cc2)cc1` ?
RESULT: F

QUERY: Hello, I am checking results. What call was entered for `NC(=O)N(O)[C@@H]1COc2cc(OCc3ccccc3)ccc21` ?
RESULT: T

QUERY: Hello, I am checking results. What call was entered for `CCCOC(=O)c1ccc(C(=O)OCCC)nc1` ?
RESULT: F

Further cases:
QUERY: Hello, I am checking results. What call was entered for `Cc1cc(OI)c(C(C)C)cc1-c1cc(C(C)C)c(OI)cc1C` ?
RESULT: F

QUERY: Hello, I am checking results. What call was entered for `NC(=O)Cn1c(=O)cc(CCN2CCN(c3nccc4sccc34)CC2)c2ccc(F)cc21` ?
RESULT: T

QUERY: Hello, I am checking results. What call was entered for `COC(=O)CC(=O)C(C)(C)C` ?
RESULT: F

QUERY: Hello, I am checking results. What call was entered for `O=C(CCCCCCC(=O)Nc1ccccc1)NO` ?
RESULT: T

QUERY: Hello, I am checking results. What call was entered for `O=C(O)c1cccc(O)c1` ?
RESULT: F

QUERY: Hello, I am checking results. What call was entered for `CC1=C(C=O)C(C)(C)CCC1` ?
RESULT: F

QUERY: Hello, I am checking results. What call was entered for `Cc1ccc(Nc2nccc(N(C)c3ccc4c(C)n(C)nc4c3)n2)cc1S(N)(=O)=O` ?
RESULT: F

QUERY: Hello, I am checking results. What call was entered for `CCn1nc(C)c2c1C(=O)NCC(c1ccc(O)cc1)=N2` ?
RESULT: F

QUERY: Hello, I am checking results. What call was entered for `COc1cc2c(N3CCN(C(=O)Nc4ccc(OC(C)C)cc4)CC3)ncnc2cc1OCCCN1CCCCC1` ?
RESULT: T

QUERY: Hello, I am checking results. What call was entered for `CCOC(=O)c1ccccc1OC` ?
RESULT: F

====

# Method Notes: A CellTox Green Cytotoxicity Assay to monitor cytotoxicity in HepG2 cells - 40 hour (AID 1224879); also: nearly all actives have a fitted effect of over 40% in size
# Experimental Parameters: CellTox Green fluorescence; series mostly up to 76.8 µM
Results filed as inconclusive are left out. Activity calls are given as the source filed them. Calls come from the whole dose curve; as a rule, active = well fitted activation curve with a large enough effect in the repeat runs; inconclusive = weak or mixed curves; inactive = flat fitted curve, though single readings scatter.
Give your call using only these classes: yes (active), no (inactive)

A selection of reference data follows.
QUERY: Hello, I am checking results. What call was entered for CC1CC(=O)NN=C1c1ccc(NCC(C)(C)NCC(O)COc2cc(Cl)ccc2C#N)cc1 (centres undefined) ?
RESULT: no

QUERY: Hello, I am checking results. What call was entered for `Cc1occc1C(=O)Nc1ccc(C(=O)N2CCC(F)(F)/C(=C\C(=O)N3CCC(N4CCCCC4)CC3)c3ccccc32)cc1` ?
RESULT: yes

QUERY: Hello, I am checking results. What call was entered for `CCCCCCCCCOC(C)=O` ?
RESULT: no

Now consider the entry below.
QUERY: Hello, I am checking results. What call was entered for C=CC(C)(O)CCCC(C)CCCC(C)CCCC(C)C (centres undefined) ?
RESULT: no

Cited source: PubChem BioAssay (Tox21)
